In this section we review reported DC50 values for a set of compounds.
Target: p300 (Homo sapiens, UniProt Q09472)
Construct: host or cells: A549 P300 HiBit cells
Sequence (Q09472 whole entry): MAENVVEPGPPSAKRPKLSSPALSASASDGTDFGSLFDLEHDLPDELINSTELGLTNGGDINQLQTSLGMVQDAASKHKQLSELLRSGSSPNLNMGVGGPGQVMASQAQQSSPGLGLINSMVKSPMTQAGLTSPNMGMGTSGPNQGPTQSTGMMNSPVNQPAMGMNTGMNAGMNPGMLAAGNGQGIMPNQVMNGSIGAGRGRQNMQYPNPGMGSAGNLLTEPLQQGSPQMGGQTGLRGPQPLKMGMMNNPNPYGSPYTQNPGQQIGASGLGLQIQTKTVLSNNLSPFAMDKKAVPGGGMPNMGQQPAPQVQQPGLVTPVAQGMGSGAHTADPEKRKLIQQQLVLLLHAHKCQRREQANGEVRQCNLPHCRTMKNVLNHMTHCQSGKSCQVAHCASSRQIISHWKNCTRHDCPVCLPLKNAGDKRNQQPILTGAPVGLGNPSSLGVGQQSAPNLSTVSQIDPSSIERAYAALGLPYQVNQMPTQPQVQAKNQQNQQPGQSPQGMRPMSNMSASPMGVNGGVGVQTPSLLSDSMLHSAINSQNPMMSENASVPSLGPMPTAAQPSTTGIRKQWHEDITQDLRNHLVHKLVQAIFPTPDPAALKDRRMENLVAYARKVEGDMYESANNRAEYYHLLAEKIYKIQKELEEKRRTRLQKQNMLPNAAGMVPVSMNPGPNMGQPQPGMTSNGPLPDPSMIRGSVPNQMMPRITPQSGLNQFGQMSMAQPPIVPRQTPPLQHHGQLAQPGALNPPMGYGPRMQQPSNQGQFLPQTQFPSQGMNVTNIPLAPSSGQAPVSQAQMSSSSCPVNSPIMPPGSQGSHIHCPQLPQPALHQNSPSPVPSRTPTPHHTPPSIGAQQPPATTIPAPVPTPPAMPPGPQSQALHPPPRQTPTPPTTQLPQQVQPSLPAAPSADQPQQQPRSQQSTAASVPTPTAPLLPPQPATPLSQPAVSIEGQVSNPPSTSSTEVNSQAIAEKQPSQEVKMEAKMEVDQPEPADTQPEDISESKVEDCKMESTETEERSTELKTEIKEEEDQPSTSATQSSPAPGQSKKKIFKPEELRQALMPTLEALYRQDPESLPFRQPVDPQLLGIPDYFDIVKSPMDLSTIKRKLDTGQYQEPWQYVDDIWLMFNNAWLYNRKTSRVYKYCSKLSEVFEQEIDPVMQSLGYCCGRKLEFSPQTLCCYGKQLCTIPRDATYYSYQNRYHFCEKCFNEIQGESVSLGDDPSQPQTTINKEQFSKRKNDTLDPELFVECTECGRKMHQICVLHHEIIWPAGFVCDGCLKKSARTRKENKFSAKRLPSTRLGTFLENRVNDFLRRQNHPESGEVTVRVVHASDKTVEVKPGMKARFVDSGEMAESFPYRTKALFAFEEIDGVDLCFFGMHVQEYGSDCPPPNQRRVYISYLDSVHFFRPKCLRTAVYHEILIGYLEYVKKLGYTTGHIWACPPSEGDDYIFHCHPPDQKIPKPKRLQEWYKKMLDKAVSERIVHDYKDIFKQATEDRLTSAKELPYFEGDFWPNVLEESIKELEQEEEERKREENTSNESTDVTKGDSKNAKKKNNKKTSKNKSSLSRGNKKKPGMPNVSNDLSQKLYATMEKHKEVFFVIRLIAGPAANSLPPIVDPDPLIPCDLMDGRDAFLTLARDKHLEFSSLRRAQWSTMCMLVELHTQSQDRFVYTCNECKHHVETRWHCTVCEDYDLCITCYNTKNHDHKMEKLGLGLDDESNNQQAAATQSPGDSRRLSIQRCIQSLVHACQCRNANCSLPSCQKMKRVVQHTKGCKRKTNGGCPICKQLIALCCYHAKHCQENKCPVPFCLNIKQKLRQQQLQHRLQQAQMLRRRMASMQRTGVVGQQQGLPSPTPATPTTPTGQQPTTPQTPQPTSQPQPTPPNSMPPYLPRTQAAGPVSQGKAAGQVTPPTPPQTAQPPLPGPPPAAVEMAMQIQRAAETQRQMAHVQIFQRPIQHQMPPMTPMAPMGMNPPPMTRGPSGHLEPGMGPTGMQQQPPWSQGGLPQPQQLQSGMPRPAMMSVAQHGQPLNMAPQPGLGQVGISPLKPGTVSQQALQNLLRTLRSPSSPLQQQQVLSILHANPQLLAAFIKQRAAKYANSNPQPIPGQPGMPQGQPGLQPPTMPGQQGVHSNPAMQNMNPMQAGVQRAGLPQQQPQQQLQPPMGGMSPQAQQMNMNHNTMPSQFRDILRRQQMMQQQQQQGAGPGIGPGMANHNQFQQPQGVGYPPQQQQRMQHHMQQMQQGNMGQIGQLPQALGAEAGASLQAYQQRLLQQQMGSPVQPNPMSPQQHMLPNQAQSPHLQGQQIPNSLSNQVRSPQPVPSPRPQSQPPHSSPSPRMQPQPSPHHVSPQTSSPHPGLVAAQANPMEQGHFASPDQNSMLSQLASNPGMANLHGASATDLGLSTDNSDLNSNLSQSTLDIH
Assay: P300 degradation, HiBit technology in A549 P300 HiBit cells (2 h)
Assay type: cell-based
Conditions: A549 P300 HiBit cells, 2 hrs post treatment

| compound | measured on | observed measurement |
| --- | --- | --- |
| Cc1cc(-c2ncc(N(C)c3cc(C(C)C)c4c(c3)n(C)c(=O)n4C)cn2)cnc1C(=O)NCC#Cc1cccc(NC2CCC(=O)NC2=O)c1 (stereo not shown) [Example A51] | p300 (Homo sapiens, UniProt Q09472) | 1 to 9.9 nM |

Ask: Find the recorded DC50 belonging to Cc1cc(N2CCN(C)c3cc(-c4ccc(C(=O)NCC#Cc5cc6c(C7CCC(=O)NC7=O)cccc6o5)nc4)ncc32)c2cc(C)c(=O)n(C)c2c1 (stereo not shown) [Example B40] and report it.
Reply: < 1 nM

Ask: Check Cc1cc2c(-c3cn(C)c(=O)c4cc(-c5ccc(C(=O)NCC#Cc6cc7c(C8CCC(=O)NC8=O)cccc7o6)nc5)ncc34)cc(C3CCOCC3)nc2n(C)c1=O (stereo not shown) [Example B160] too.
Reply: 1 to 9.9 nM

Ask: Check CC(C)c1cc(-c2cccc3cc(-c4ccc(C(=O)NCC#Cc5ccc6c(c5)nnn6C5CCC(=O)NC5=O)nc4)ncc23)cc2c1n(C)c(=O)n2C (stereo not shown) [Example A17] too.
Reply: > 1000 nM

Ask: Check Cc1cc(-c2ccc(N(c3cc(C(C)C)c4c(c3)n(C)c(=O)n4C)C(F)(F)F)cn2)cnc1C(=O)NCC#Cc1cccc(NC2CCC(=O)NC2=O)c1 (stereo not shown) [Example A52] too.
Reply: 100 to 999 nM

Ask: Check Cc1cc2c(N3CCCc4nc(-c5ccc(C(=O)NCC#Cc6ccc7occ(C8CCC(=O)NC8=O)c7c6)nc5)ncc43)nc(N3CCOCC3)cc2n(C)c1=O (stereo not shown) [Example B62] too.
Reply: 1 to 9.9 nM

Ask: Check CC(C)c1cc(N2CCOc3cc(-c4ccc(C(=O)NCC#Cc5ccc6occ(C7CCC(=O)NC7=O)c6c5)nc4)c(F)cc32)cc2c1n(C)c(=O)n2C (stereo not shown) [Example A110] too.
Reply: 1 to 9.9 nM

Ref: patent US20250114345A1
